target: Bromodomain-containing protein 4 (Homo sapiens); assay: Inhibition of BRD4 BD2 (unknown origin) measured by TR-FRET assay
pIC50: −log10 of the molar value.
measured_attribute: pIC50

* COc1ccc2c(c1)C=CN(C)C(=O)[C@@H]2C | 5.80
* CCS(=O)(=O)c1ccc2c(c1)C(c1cnn(C)c1)=CN(C)C(=O)[C@@H]2C | 7.10
* C[C@H]1C(=O)N(C)C=Cc2cc(CC3CCOCC3)ccc21 | 6.50
* C[C@H]1C(=O)N(C)C=Cc2cc(CN3CCOCC3)ccc21 | 6.20
* C[C@H]1C(=O)N(C)C=C(c2cnn(C)c2)c2cc(C(CO)CO)ccc21 | 7.00
* CCOc1ccc2c(c1)C(c1cnn(C)c1)=CN(C)C(=O)[C@@H]2C | 8.10
* C[C@H]1C(=O)N(C)C=C(c2cnn(C)c2)c2cc([C@@H](O)CO)ccc21 | 7.20
* Cc1nc(C2=CN(C)C(=O)[C@H](C)c3ccc(OCCO)cc32)c[nH]1 | 7.50
* CCOc1ccc2c(c1)C(c1c[nH]cn1)=CN(C)C(=O)[C@@H]2C | 8.00
* C[C@H]1C(=O)N(C)C=Cc2cc(CN3CCCC3)ccc21 | 5.10

###

target: Bromodomain-containing protein 4 (Homo sapiens); assay: Inhibition of BRD4 BD1 (unknown origin) measured by TR-FRET assay
measured_attribute: log10(IC50) (log10 of the value in nM)

- COc1cc2c(cc1OC)[C@@H](C)C(=O)N(C)C=C2: 2.20
- C[C@H]1C(=O)N(C)C=C(c2cnn(C)c2)c2cc([C@H](O)CO)ccc21: 1.50
- CCS(=O)(=O)c1ccc2c(c1)C(c1ccncc1)=CN(C)C(=O)C2C (racemic): 2.80
- COC[C@@H](C)n1c(C2CCOCC2)nc2cnc3cc(-c4c(C)noc4C)c(OC)cc3c21: 1.60
- CCOc1ccc2c(c1)C(c1c[nH]cn1)=CN(C)C(=O)[C@@H]2C: 1.00
- C[C@H]1C(=O)N(C)C=C(c2cn[nH]c2)c2cc([C@H](O)CO)ccc21: 1.20
- C[C@H]1C(=O)N(C)C=Cc2cc(CN3CCCC3)ccc21: 2.70
- CC1C(=O)N(C)C=Cc2cc(OCC(C)(C)O)ccc21 (racemic): 2.40
- C[C@H]1C(=O)N(C)C=Cc2cc(CC3CCOCC3)ccc21: 1.80
- Cc1nc(C2=CN(C)C(=O)[C@H](C)c3ccc(OCCO)cc32)c[nH]1: 1.30
- CCOc1ccc2c(c1)C(c1c[nH]c(C)n1)=CN(C)C(=O)[C@@H]2C: 1.10
- CCc1ccc2c(c1)C=CN(C)C(=O)[C@@H]2C: 2.30
- CCS(=O)(=O)c1ccc2c(c1)C(C(N)=O)=CN(C)C(=O)[C@@H]2C: 3.20
- CCOc1ccc2c(c1)C(c1cnn(C)c1)=CN(C)C(=O)[C@@H]2C: 1.00
- C[C@H]1C(=O)N(C)C=Cc2cc(CN3CCOCC3)ccc21: 2.20
- CCS(=O)(=O)c1ccc2c(c1)C(c1ccccc1)=CN(C)C(=O)C2C (racemic): 2.40
- C[C@H]1C(=O)N(C)C=Cc2cc(C(CO)CO)ccc21: 2.60
- CCOc1ccc2c(c1)C=CN(C)C(=O)C2C (racemic): 2.70
- COc1cc2c(cc1OC)[C@H](C)C(=O)N(C)CC2: 4.80
- COc1cc2c(cc1OC)[C@@H](C)C(=O)N(C)CC2: 3.60
- C[C@H]1C(=O)N(C)C=C(c2cnn(C)c2)c2cc(C(CO)CO)ccc21: 1.50
- CCOc1ccc2c(c1)C(c1cn(C)cn1)=CN(C)C(=O)[C@@H]2C: 1.50
- CCS(=O)(=O)c1ccc2c(c1)C=CN(C)C(=O)[C@@H]2C (racemic): 2.30
- CCOc1ccc2c(c1)C(n1ccnc1)=CN(C)C(=O)C2C (racemic): 4.60

###

assay: Unbound fraction in Beagle dog at 1.5 mg/kg, po or 0.5 mg/kg, iv measured upto 24 hrs by LC-MS/MS analysis; type: ADME, organism-based, Canis lupus familiaris; settings: in vivo
measured_attribute: Fu

• C[C@H]1C(=O)N(C)C=C(c2cnn(C)c2)c2cc([C@@H](O)CO)ccc21 = 0.47

###

assay: Lipophilicity, logD of compound at pH 7.4 by Chromatography; assay type: physicochemical; settings: buffer
In this section we review reported chromatographic logD values for a set of compounds.
measured_attribute: chromatographic logD

* CCS(=O)(=O)c1ccc2c(c1)C(c1ccccc1)=CN(C)C(=O)C2C (racemic) | 5.1
* CCOc1ccc2c(c1)C(c1cn(C)cn1)=CN(C)C(=O)[C@@H]2C | 3.6
* CCS(=O)(=O)c1ccc2c(c1)C(c1ccncc1)=CN(C)C(=O)C2C (racemic) | 2.8
* CCOc1ccc2c(c1)C(c1cc[nH]n1)=CN(C)C(=O)C2C (racemic) | 3.8
* C[C@H]1C(=O)N(C)C=Cc2cc(CN3CCOCC3)ccc21 | 3.3
* COc1ccc2c(c1)C=CN(C)C(=O)[C@@H]2C | 4.3
* C[C@H]1C(=O)N(C)C=C(c2cnn(C)c2)c2cc([C@@H](O)CO)ccc21 | 1.3
* C[C@H]1C(=O)N(C)C=Cc2cc(CC3CCOCC3)ccc21 | 5.4
* CCS(=O)(=O)c1ccc2c(c1)C(C)=CN(C)C(=O)[C@@H]2C | 3.4
* CCOc1ccc2c(c1)C(c1c[nH]c(C)n1)=CN(C)C(=O)[C@@H]2C | 3.1

###

test: Artificial membrane permeability of the compound; assay type: ADME; conditions: PAMPA; read-out: permeability
We begin with a simple list: items and their reported Papp.
measured_attribute: Papp (nm/s)

- C[C@H]1C(=O)N(C)C=C(c2cn[nH]c2)c2cc([C@H](O)CO)ccc21: 8
- CCOc1ccc2c(c1)C(c1cnn(C)c1)=CN(C)C(=O)[C@@H]2C: 570
- CCS(=O)(=O)c1ccc2c(c1)C(c1ccccc1)=CN(C)C(=O)C2C (racemic): 1000
- C[C@H]1C(=O)N(C)C=C(c2cnn(C)c2)c2cc([C@@H](O)CO)ccc21: 31
- C[C@H]1C(=O)N(C)C=Cc2cc(OC(CO)CO)ccc21: 42

###

experiment: Solubility of the compound at pH 6.5 in fast state simulated intestinal fluid incubated for 16 hrs by HPLC analysis; format: physicochemical; conditions: fasted state simulated intestinal fluid
measured_attribute: solubility at 16 h

- C[C@H]1C(=O)N(C)C=C(c2cnn(C)c2)c2cc([C@@H](O)CO)ccc21: > 1000 µg/mL
- C[C@H]1C(=O)N(C)C=C(c2cn[nH]c2)c2cc([C@H](O)CO)ccc21: > 1000 µg/mL
- COc1cc2c(cc1OC)[C@@H](C)C(=O)N(C)C=C2: > 1000 µg/mL
- C[C@H]1C(=O)N(C)C=C(c2cnn(C)c2)c2cc([C@H](O)CO)ccc21: > 1000 µg/mL
- C[C@H]1C(=O)N(C)C=C(c2cn[nH]c2)c2cc([C@@H](O)CO)ccc21: 417 µg/mL

###

target: Bromodomain-containing protein 4 (Homo sapiens, UniProt O60885); test: Inhibition of BRD4 BD1 (unknown origin) measured by TR-FRET assay
measured_attribute: log10 of IC50 (log10 of the value in µM)

* COc1ccc2c(c1)C=CN(C)C(=O)[C@@H]2C | -0.20
* C[C@H]1C(=O)N(C)C=Cc2cc(C(O)CO)ccc21 (stereo partly specified) | -0.40
* Cc1cc(-c2ccccc2)cn(C)c1=O | 0.50
* C[C@H]1C(=O)N(C)C=Cc2ccccc21 (racemic) | 0.20
* COc1cc2c(cc1OC)[C@H](C)C(=O)N(C)C=C2 | 1.10
* CCOc1ccc2c(c1)C(c1cn[nH]c1)=CN(C)C(=O)[C@@H]2C | -2.20

###

assay: Half-life in Wistar Han rat at 3.1 mg/kg, po or 1 mg/kg, iv measured upto 24 hrs by LC-MS/MS analysis; assay type: ADME, organism-based; details: in vivo
List of half-life values.
measured_attribute: half-life (min)

* C[C@H]1C(=O)N(C)C=C(c2cnn(C)c2)c2cc([C@H](O)CO)ccc21 | 58.2
* C[C@H]1C(=O)N(C)C=C(c2cn[nH]c2)c2cc([C@H](O)CO)ccc21 | 24.6

###

# collection of IC50 values tested on Voltage-gated inwardly rectifying potassium channel KCNH2 (Homo sapiens, UniProt Q12809)
# Sequence (Q12809 whole entry): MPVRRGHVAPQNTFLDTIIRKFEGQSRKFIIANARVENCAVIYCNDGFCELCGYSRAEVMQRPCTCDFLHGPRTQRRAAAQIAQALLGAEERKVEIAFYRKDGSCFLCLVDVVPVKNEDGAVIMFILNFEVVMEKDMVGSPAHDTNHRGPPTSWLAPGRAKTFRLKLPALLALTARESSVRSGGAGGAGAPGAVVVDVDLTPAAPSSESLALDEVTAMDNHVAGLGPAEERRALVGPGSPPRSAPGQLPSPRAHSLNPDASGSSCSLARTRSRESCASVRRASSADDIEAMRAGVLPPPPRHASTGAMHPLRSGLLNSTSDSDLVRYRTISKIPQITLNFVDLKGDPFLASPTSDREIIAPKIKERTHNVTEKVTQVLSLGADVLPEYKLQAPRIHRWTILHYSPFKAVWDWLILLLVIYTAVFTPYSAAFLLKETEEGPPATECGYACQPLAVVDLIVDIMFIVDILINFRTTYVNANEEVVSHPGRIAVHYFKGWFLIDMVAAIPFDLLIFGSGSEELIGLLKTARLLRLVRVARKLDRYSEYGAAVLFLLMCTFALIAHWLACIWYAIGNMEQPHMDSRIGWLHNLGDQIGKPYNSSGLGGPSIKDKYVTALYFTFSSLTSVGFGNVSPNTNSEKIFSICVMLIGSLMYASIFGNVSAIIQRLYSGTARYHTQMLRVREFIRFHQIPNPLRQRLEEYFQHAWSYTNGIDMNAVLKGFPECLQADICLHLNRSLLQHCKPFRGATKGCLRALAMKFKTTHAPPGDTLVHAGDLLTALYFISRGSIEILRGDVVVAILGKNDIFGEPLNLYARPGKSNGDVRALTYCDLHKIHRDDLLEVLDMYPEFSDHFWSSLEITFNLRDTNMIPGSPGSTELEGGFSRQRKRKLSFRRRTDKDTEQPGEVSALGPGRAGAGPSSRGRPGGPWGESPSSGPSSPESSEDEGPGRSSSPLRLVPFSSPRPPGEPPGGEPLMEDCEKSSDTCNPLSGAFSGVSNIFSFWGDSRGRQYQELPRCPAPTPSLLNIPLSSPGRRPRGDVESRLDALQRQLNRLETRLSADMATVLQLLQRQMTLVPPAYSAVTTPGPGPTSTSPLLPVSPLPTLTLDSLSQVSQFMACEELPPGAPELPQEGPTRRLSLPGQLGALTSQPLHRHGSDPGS
measured_attribute: IC50

• C[C@H]1C(=O)N(C)C=C(c2cnn(C)c2)c2cc([C@@H](O)CO)ccc21 = > 50.1 µM
• COc1cc2c(cc1OC)[C@@H](C)C(=O)N(C)C=C2 = > 50.1 µM

###

assay: Unbound fraction in Wistar Han rat at 3 mg/kg, po or 1 mg/kg, iv measured upto 24 hrs by LC-MS/MS analysis; format: ADME, organism-based; conditions: in vivo
measured_attribute: Fu

• C[C@H]1C(=O)N(C)C=C(c2cnn(C)c2)c2cc([C@@H](O)CO)ccc21 = 0.68
